Tested on: OVCAR8
Experimental Protocol: drug sensitivity score (DSS) from 5-point dose-response viability curve (DSS (area-under-curve based score)); higher = more sensitive (stronger growth inhibition or killing); extreme values may be limits of the assay
Reported Conditions: exposure time: 72 h; concentration range: 5 concentrations over 10,000-fold range
The label depends only on drug sensitivity score: 1.0 if it is at least 3, 0.0 if it is smaller.

{"columns": ["Compound", "Tested System", "Label Value"],
 "data": [
  ["CNC(=O)c1cc(Oc2ccc(NC(=O)Nc3ccc(Cl)c(C(F)(F)F)c3)c(F)c2)ccn1 [Regorafenib]", "OVCAR8", 1.0],
  ["CC[C@@H](C(=O)[C@@H](C)[C@@H](O)[C@H](C)[C@@H]1O[C@@H]([C@@H](CC)C(=O)O)CC[C@@H]1C)[C@H]1O[C@]2(C=C[C@@H](O)[C@]3(CC[C@@](C)([C@H]4CC[C@](O)(CC)[C@H](C)O4)O3)O2)[C@H](C)C[C@@H]1C [Salinomycin]", "OVCAR8", 1.0],
  ["CONC(=O)c1ccccc1Nc1cc(Nc2cc(C)nn2C(C)C)ncc1Cl", "OVCAR8", 0.0],
  ["O=c1[nH]c(=O)n([C@H]2C[C@H](O)[C@@H](CO)O2)cc1C(F)(F)F [Trifluridine]", "OVCAR8", 0.0],
  ["CCC(C)(C)C(=O)O[C@H]1C[C@@H](C)C=C2C=C[C@H](C)[C@H](CC[C@@H]3C[C@@H](O)CC(=O)O3)[C@H]21 [Simvastatin]", "OVCAR8", 0.0],
  ["O[C@H](C[C@H]1c2c(F)cccc2-c2cncn21)[C@H]1CC[C@H](O)CC1 [GDC-0919]", "OVCAR8", 0.0],
  ["CC(O)(CS(=O)(=O)c1ccc(F)cc1)C(=O)Nc1ccc(C#N)c(C(F)(F)F)c1 (configuration not stated) [Bicalutamide]", "OVCAR8", 0.0],
  ["CCCCC(=O)OCC(=O)[C@]1(O)Cc2c(O)c3c(c(O)c2[C@@H](O[C@H]2C[C@H](NC(=O)C(F)(F)F)[C@H](O)[C@H](C)O2)C1)C(=O)c1c(OC)cccc1C3=O [Valrubicin]", "OVCAR8", 1.0],
  ["CCNc1nc(Nc2cc(F)c(C(=O)N3CCOCC3)cc2OC)ncc1C(F)(F)F [GNE-7915]", "OVCAR8", 0.0],
  ["N[C@@H]1CCCN(c2c(/C=C3\\SC(=O)NC3=O)cccc2-c2ccccc2)C1 [AZD1208]", "OVCAR8", 0.0],
  ["C=CCc1cccc(/C=N/NC(=O)CN2CCN(Cc3ccccc3)CC2)c1O [PAC-1]", "OVCAR8", 1.0],
  ["COc1cc2nccc(Oc3ccc(NC(=O)C4(C(=O)Nc5ccc(F)cc5)CC4)cc3)c2cc1OC [Cabozantinib]", "OVCAR8", 0.0]
]}

----------
In this section, each of the compounds is paired with its reported drug sensitivity score.
Tested on: CAOV3
Experimental Protocol: drug sensitivity score (DSS) from 5-point dose-response viability curve (DSS (area-under-curve based score)); higher = more sensitive (stronger growth inhibition or killing); extreme values may be limits of the assay
Reported Conditions: exposure time: 72 h; concentration range: 5 concentrations over 10,000-fold range

{"columns": ["Compound", "drug sensitivity score"],
 "data": [
  ["O=S(=O)(c1cccc2c(O)nccc12)N1CCCNCC1 [Hydroxyfasudil]", 0],
  ["Cc1c(-c2ccc(N3CCc4cccc(C(=O)Nc5nc6ccccc6s5)c4C3)nc2C(=O)O)cnn1CC12CC3CC(CC(C3)C1)C2", 5.1],
  ["Cc1sc2c(c1C)C(c1ccc(Cl)cc1)=N[C@@H](CC(=O)Nc1ccc(O)cc1)c1nnc(C)n1-2", 13.1],
  ["CCNC(=O)c1noc(-c2cc(C(C)C)c(O)cc2O)c1-c1ccc(CN2CCOCC2)cc1", 16.8]
]}
